Provide the recorded melting point for the entries that follow.

Answered examples (2):
Q: # melting point lookup, item COc1ccc(-c2cc(-c3ccc(Cl)c(Cl)c3)[nH]c(=O)c2C#N)cc1OC1CCCC1 [Compound 12c]
Ans: > 300 °C

Q: # melting point lookup, item COc1ccc(C(=S)N2CCCCC2)cc1OC1CCCC1 [Compound 9b]
Ans: 193 to 195 °C

Below is a list of molecules. For each, state its recorded melting point.
1. CCN1CCC(=O)C(=Cc2ccc(OC)c(OC3CCCC3)c2)C1 [Compound 4b]
2. COc1ccc(-c2nc3c4ccccc4c4ccccc4c3[nH]2)cc1OC1CCCC1 [Compound 7a]
3. COc1ccc(C2NC(=S)NC3=C2CCCC3)cc1OC1CCCC1 (stereo not drawn) [Compound 5a]
4. COc1ccc(C=C2CCCCCC2=O)cc1OC1CCCC1 [Compound 3c]
5. COc1ccc(-c2cc(-c3ccccc3)[nH]c(=O)c2C#N)cc1OC1CCCC1 [Compound 12a]
6. COc1ccc(C2NC(=S)NC3=C2C(=O)CC(C)(C)C3)cc1OC1CCCC1 (stereo not drawn) [Compound 6b]
7. COc1ccc(-c2nc3c4ccccc4c4ccccc4c3n2-c2ccc(C)cc2)cc1OC1CCCC1 [Compound 7c]

Ans:
["249 to 251 °C", "290 to 292 °C", "199 to 201 °C", "250 to 252 °C", "> 300 °C", "233 to 235 °C", "291 to 294 °C"]

----------
Tested on: HePG2, HCT-116, MCF-7, PC3, and HeLa cell lines
Assay Overview: In vitro antitumor MTT assay, panel of five human cancer cell lines (text summaries)
Type: cell-based
Experimental Parameters: Homo sapiens, read-out: IC50, antitumor activity, range over the tested cancer cell lines
pIC50: −log10 of the molar value.
Parameter: pIC50

Answered examples (3):
Q: # pIC50 lookup, item COc1ccc(-c2nc3c4ccccc4c4ccccc4c3[nH]2)cc1OC1CCCC1 [Compound 7a]
Ans: 4.04 to 4.27

Q: # pIC50 lookup, item Cc1ccc(-c2cc(C(F)(F)F)nn2-c2ccc(S(N)(=O)=O)cc2)cc1 [Celecoxib, celecoxib, reference compound]
Ans: 4.44 to 4.59

Q: # pIC50 lookup, item COc1ccc(-c2nc3c4ccccc4c4ccccc4c3n2-c2ccc(C)cc2)cc1OC1CCCC1 [Compound 7c]
Ans: 4.04 to 4.27

Others:
Q: # pIC50 lookup, item COc1ccc(-c2nc3c4ccccc4c4ccccc4c3n2-c2ccc(Cl)cc2)cc1OC1CCCC1 [Compound 7e]
Ans: 4.33 to 4.53

----------
Provide the recorded IC50 for the entries that follow.
System: HCT-116 cell line
Assay Overview: In vitro antitumor MTT assay, HCT-116
Assay type: cell-based
Experimental Parameters: Homo sapiens, HCT-116; read-out: IC50 (µM) HCT-116
Answers are plain numbers, in µM.

Below is a list of molecules. For each, state its recorded IC50.
1. COc1ccc(C2NC(=S)NC3=C2CCCCC3)cc1OC1CCCC1 (stereo not shown)
2. COc1ccc(-c2cc(-c3ccc(C)cc3)[nH]c(=O)c2C#N)cc1OC1CCCC1 [Compound 12b]
3. COc1ccc(-c2nc3c4ccccc4c4ccccc4c3n2-c2ccccc2)cc1OC1CCCC1
4. COc1ccc(C2NC(=S)NC3=C2CCCC3)cc1OC1CCCC1 (stereo not shown)

Ans:
1: 61.1; 2: 67.7; 3: 19.7; 4: 66.5

----------
Tested on: MCF-7 cell line
Assay Overview: In vitro antitumor MTT assay, MCF-7
Type: cell-based
Experimental Parameters: Homo sapiens, MCF7; read-out: IC50 (µM) MCF-7
Parameter: IC50 (µM)
Answers are plain numbers, in µM.

Q: # IC50 lookup, item COc1ccc(-c2cc(-c3ccccc3)[nH]c(=O)c2C#N)cc1OC1CCCC1 [Compound 12a]
Ans: 71.6

Q: # IC50 lookup, item COc1ccc(C2NC(=S)NC3=C2C(=O)CC(C)(C)C3)cc1OC1CCCC1 (stereo not shown)
Ans: 10.3

Q: # IC50 lookup, item COc1ccc(C(=S)N(C)C)cc1OC1CCCC1
Ans: 94.3

Q: # IC50 lookup, item COc1ccc(C(=S)N2CCOCC2)cc1OC1CCCC1
Ans: 35.2

Q: # IC50 lookup, item COc1ccc(C=C2CN(C)CCC2=O)cc1OC1CCCC1
Ans: 5.13

Below is a list of compounds. For each, state its recorded IC50.
1. COc1ccc(-c2nc3c4ccccc4c4ccccc4c3n2-c2ccccc2)cc1OC1CCCC1
2. COc1ccc(C2NC(=O)NC3=C2C(=O)CC(C)(C)C3)cc1OC1CCCC1 (stereo not shown)

Ans:
11.8
28.6

----------
Provide the recorded IC50 for the entries that follow.
Tgt: COX-2 (Ovis aries)
Construct: purchased Cayman Chemical 560101
Sequence (P79208 17-603): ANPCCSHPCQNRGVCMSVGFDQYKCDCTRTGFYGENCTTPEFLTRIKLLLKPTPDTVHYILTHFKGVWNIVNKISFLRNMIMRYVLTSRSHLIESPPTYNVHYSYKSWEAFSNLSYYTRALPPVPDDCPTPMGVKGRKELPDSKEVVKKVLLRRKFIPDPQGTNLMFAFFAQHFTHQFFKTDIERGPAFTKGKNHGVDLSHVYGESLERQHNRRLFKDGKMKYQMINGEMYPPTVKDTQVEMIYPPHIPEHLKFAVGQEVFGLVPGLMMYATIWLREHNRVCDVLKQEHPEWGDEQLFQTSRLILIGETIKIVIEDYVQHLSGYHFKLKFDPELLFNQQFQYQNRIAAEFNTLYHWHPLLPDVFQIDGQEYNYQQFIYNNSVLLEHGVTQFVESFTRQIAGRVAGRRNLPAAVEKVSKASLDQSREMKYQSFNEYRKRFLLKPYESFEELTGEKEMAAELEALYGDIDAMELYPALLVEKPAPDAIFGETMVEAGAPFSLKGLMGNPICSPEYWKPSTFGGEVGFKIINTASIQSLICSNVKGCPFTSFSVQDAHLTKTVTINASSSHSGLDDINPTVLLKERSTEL
Assay Overview: Colorimetric COX-2 inhibition assay (Cayman kit 560101)
Type: biochemical
Experimental Parameters: means of three determinations
Numbers only, in µM.

Answered examples (3):
Q: COX-2 (Ovis aries) / IC50 / COc1ccc(C=C2CN(C)CCC2=O)cc1OC1CCCC1 : value?
Ans: 3.34

Q: COX-2 (Ovis aries) / IC50 / CCN1CCC(=O)C(=Cc2ccc(OC)c(OC3CCCC3)c2)C1 : value?
Ans: 1.08

Q: COX-2 (Ovis aries) / IC50 / COc1ccc(-c2nc3c4ccccc4c4ccccc4c3n2-c2ccccc2)cc1OC1CCCC1 : value?
Ans: 24

Others:
Q: COX-2 (Ovis aries) / IC50 / COc1ccc(-c2[nH]c(=S)[nH]c(=O)c2C#N)cc1OC1CCCC1 : value?
Ans: 1.88

----------
Provide the recorded melting point for the entries that follow.

Answered examples (10):
Q: # melting point lookup, item COc1ccc(C(=S)Nc2ccc(F)cc2)cc1OC1CCCC1 [Compound 10]
Ans: 194 to 196 °C

Q: # melting point lookup, item COc1ccc(-c2nc3c4ccccc4c4ccccc4c3n2-c2ccc(Cl)cc2)cc1OC1CCCC1 [Compound 7e]
Ans: 294 to 296 °C

Q: # melting point lookup, item COc1ccc(-c2nc3n(c(=O)c2C#N)C(=O)CS3)cc1OC1CCCC1 [Compound 14]
Ans: 265 to 267 °C

Q: # melting point lookup, item COc1ccc(-c2nc3c4ccccc4c4ccccc4c3n2-c2ccccc2)cc1OC1CCCC1 [Compound 7b]
Ans: 295 to 297 °C

Q: # melting point lookup, item COc1ccc(C=C2CCCCC2=O)cc1OC1CCCC1 [Compound 3b]
Ans: 245 to 247 °C

Q: # melting point lookup, item COc1ccc(C=C2CN(C)CCC2=O)cc1OC1CCCC1 [Compound 4a]
Ans: 253 to 255 °C

Q: # melting point lookup, item COc1ccc(C2C3=C(CC(C)(C)CC3=O)NC3=C2C(=O)CC(C)(C)C3)cc1OC1CCCC1 [Compound 8]
Ans: 286 to 287 °C

Q: # melting point lookup, item COc1ccc(C(=S)N2CCN(C(=O)OC(C)(C)C)CC2)cc1OC1CCCC1 [Compound 9c]
Ans: 191 to 193 °C

Q: # melting point lookup, item COc1ccc(-c2nc3c4ccccc4c4ccccc4c3n2-c2ccc(F)cc2)cc1OC1CCCC1 [Compound 7d]
Ans: 290 to 292 °C

Q: # melting point lookup, item COc1ccc(C(=S)N(C)C)cc1OC1CCCC1 [Compound 11]
Ans: 189 to 191 °C

Below is a list of molecules. For each, state its recorded melting point.
1. COc1ccc(C(=S)N2CCOCC2)cc1OC1CCCC1 [Compound 9a]
2. COc1ccc(-c2cc(-c3ccc(C)cc3)[nH]c(=O)c2C#N)cc1OC1CCCC1 [Compound 12b]

Ans:
190 to 192 °C
> 300 °C

Q: # melting point lookup, item COc1ccc(C2NC(=O)NC3=C2C(=O)CC(C)(C)C3)cc1OC1CCCC1 (stereo not shown) [Compound 6a]
Ans: 230 to 232 °C

----------
Test system: HePG2, HCT-116, MCF-7, PC3, and HeLa cell lines
Assay Overview: In vitro antitumor MTT assay, panel of five human cancer cell lines (text summaries)
Assay type: cell-based
Experimental Parameters: Homo sapiens, range over (all or some of) HePG2, HCT-116, MCF-7, PC3, HeLa; read-out: IC50, antitumor activity, range over the tested cancer cell lines
Provide the recorded IC50 for the entries that follow.

Answered examples (3):
Q: # IC50 lookup, item COc1ccc(C2NC(=O)NC3=C2C(=O)CC(C)(C)C3)cc1OC1CCCC1 (stereo not drawn)
Ans: 18.5 to 30.5 µM

Q: # IC50 lookup, item COc1ccc(C(=S)Nc2ccc(F)cc2)cc1OC1CCCC1
Ans: 47.3 to 79.1 µM

Q: # IC50 lookup, item COc1ccc(C(=S)N2CCCCC2)cc1OC1CCCC1
Ans: 24.9 to 39.1 µM

Below is a list of molecules. For each, state its recorded IC50.
1. COc1cccc2c1C(=O)c1c(O)c3c(c(O)c1C2=O)C[C@@](O)(C(=O)CO)C[C@@H]3O[C@H]1C[C@H](N)[C@H](O)[C@H](C)O1 [DOX, doxorubicin, reference compound]
2. COc1ccc(C(=S)N(C)C)cc1OC1CCCC1
3. COc1ccc(C2NC(=S)NC3=C2C(=O)CC(C)(C)C3)cc1OC1CCCC1 (stereo not drawn)

Ans:
4.17 to 8.87 µM
88.6 to 96.8 µM
10.3 to 25.4 µM
